Species on record: Rattus norvegicus
Experiment: Open TG-GATES - Regimen: Daily Repeat
Type: toxicity, organism-based, Sprague-Dawley
Parameters: regimen Daily Repeat, gender Male, age 6 weeks
Details: in vivo, po, 100 mg/kg, 72 h, tissue Blood, route gavage, dose level Low, time 3 day
Some molecules, each annotated with its measured MCV.
Please state the value followed by its unit.

Reference set, count: 3
{"MOLECULE": "O=C(O)c1ccccc1Nc1ccccc1 [FENAMIC ACID]", "MCV": "62.6 fL"}
{"MOLECULE": "CC(S)C(=O)NCC(=O)O (centres undefined) [TIOPRONIN]", "MCV": "60.1 fL"}
{"MOLECULE": "CCCCNC(=O)NS(=O)(=O)c1ccc(C)cc1 [TOLBUTAMIDE]", "MCV": "61.9 fL"}

Okay, next one:
Q: Recorded MCV for CC(=O)[C@@]1(O)CC[C@H]2[C@@H]3C=C(Cl)C4=CC(=O)CC[C@]4(C)[C@H]3CC[C@@]21C [CHLORMADINONE] , please?
Ans: 60.6 fL

---

Some compounds, each annotated with its measured TP.
Species on record: Rattus norvegicus
Assay: Open TG-GATES - Regimen: Daily Repeat
Assay type: toxicity, organism-based, Sprague-Dawley
Set-up: regimen Daily Repeat, gender Male, age 6 weeks
Details: in vivo, po, 1000 mg/kg, […], tissue Plasma, route gavage, dose level High, time 28 day
Answer format: numeric, g/dL implied, no suffix.

Reference set, count: 3
{"COMPOUND": "O=C(O)c1ccccc1Nc1ccccc1", "TP [g/dL]": 5.5}
{"COMPOUND": "CCCCNC(=O)NS(=O)(=O)c1ccc(C)cc1 [TOLBUTAMIDE]", "TP [g/dL]": 6}
{"COMPOUND": "CC(S)C(=O)NCC(=O)O (centres undefined)", "TP [g/dL]": 5.8}

Okay, next one:
Q: Recorded TP for CC(=O)[C@@]1(O)CC[C@H]2[C@@H]3C=C(Cl)C4=CC(=O)CC[C@]4(C)[C@H]3CC[C@@]21C , please?
Ans: 6.6

---

Some molecules, each annotated with its measured LDH.
Species: Rattus norvegicus
Assay: Open TG-GATES - Regimen: Daily Repeat
Type: toxicity, organism-based, Sprague-Dawley
Parameters: regimen Daily Repeat, gender Male, age 6 weeks
Settings: in vivo, po, 0 mg/kg, […], tissue Plasma, route gavage, dose level Control, time 14 day
Answer format: numeric, IU/L implied, no suffix.

Reference set, count: 3
{"MOLECULE": "CN(CCOc1ccc(CC2SC(=O)NC2=O)cc1)c1ccccn1.O=C(O)/C=C\\C(=O)O (stereo unspecified) [ROSIGLITAZONE MALEATE]", "UNITS TEXT": "IU/L", "LDH": 65}
{"MOLECULE": "Nc1ccc(Cc2ccc(N)cc2)cc1", "UNITS TEXT": "IU/L", "LDH": 79.4}
{"MOLECULE": "CCN(CC)C(=S)SSC(=S)N(CC)CC", "UNITS TEXT": "IU/L", "LDH": 167}

Q: Recorded LDH for CCCCNC(=O)NS(=O)(=O)c1ccc(C)cc1 [TOLBUTAMIDE] , please?
Ans: 58.8

Q: Same question, O=C(O)c1ccccc1Nc1ccccc1 [FENAMIC ACID] this time
Ans: 78.2

---

Organism: Rattus norvegicus
Assay: Open TG-GATES - Regimen: Single
Type: toxicity, organism-based, Sprague-Dawley
Set-up: regimen Single, gender Male, age 6 weeks
Conditions: in vivo, po, 0 mg/kg, 9 h, tissue Blood, route gavage, dose level Control
PROPERTY NAME: Fbg (mg/dL)
Answer format: numeric, mg/dL implied, no suffix.

Reference set, count: 4
{"COMPOUND": "CCO [ALCOHOL]", "OBSERVED MEASUREMENT": 199.2}
{"COMPOUND": "CN(C/C=C/C#CC(C)(C)C)Cc1cccc2ccccc12 [TERBINAFINE]", "OBSERVED MEASUREMENT": 229}
{"COMPOUND": "NS(=O)(=O)c1cc(C(=O)O)c(NCc2ccco2)cc1Cl [FUROSEMIDE]", "OBSERVED MEASUREMENT": 294.4}
{"COMPOUND": "C=C[C@H]1C[N@@]2CC[C@H]1C[C@@H]2[C@@H](O)c1ccnc2ccc(OC)cc12 [QUINIDINE]", "OBSERVED MEASUREMENT": 288.2}

Q: Recorded Fbg for CN(C)CCCN1c2ccccc2Sc2ccc(Cl)cc21 [CHLORPROMAZINE] , please?
Ans: 227

Q: Same question, CC(S)C(=O)NCC(=O)O (centres undefined) [TIOPRONIN] this time
Ans: 294.2

---

Species on record: Rattus norvegicus
Assay: Open TG-GATES - Regimen: Daily Repeat
Assay type: toxicity, organism-based, Sprague-Dawley
Parameters: regimen Daily Repeat, gender Male, age 6 weeks
Details: in vivo, po, 1000 mg/kg, […], tissue Blood, route gavage, dose level High, time 14 day
Some molecules, each annotated with its measured Ret.
Please state the value followed by its unit.

Reference set, count: 3
{"MOLECULE": "CC(=O)[C@@]1(O)CC[C@H]2[C@@H]3C=C(Cl)C4=CC(=O)CC[C@]4(C)[C@H]3CC[C@@]21C [CHLORMADINONE]", "PROPERTY NAME": "Ret", "OBSERVED MEASUREMENT": "2.6%"}
{"MOLECULE": "CCCCNC(=O)NS(=O)(=O)c1ccc(C)cc1 [TOLBUTAMIDE]", "PROPERTY NAME": "Ret", "OBSERVED MEASUREMENT": "4.3%"}
{"MOLECULE": "O=C(O)c1ccccc1Nc1ccccc1 [FENAMIC ACID]", "PROPERTY NAME": "Ret", "OBSERVED MEASUREMENT": "13.6%"}

Okay, next one:
Q: Recorded Ret for CC(S)C(=O)NCC(=O)O (centres undefined) [TIOPRONIN] , please?
Ans: 5.2%

---

Organism: Rattus norvegicus
Experiment: Open TG-GATES - Regimen: Daily Repeat
Assay type: toxicity, organism-based, Sprague-Dawley
Design: regimen Daily Repeat, gender Male, age 6 weeks
Conditions: in vivo, po, 300 mg/kg, […], tissue Plasma, route gavage, dose level Middle, time 28 day
Some compounds, each annotated with its measured PL.
Answer format: numeric, mg/dL implied, no suffix.

{"COMPOUND": "CCCCNC(=O)NS(=O)(=O)c1ccc(C)cc1 [TOLBUTAMIDE]", "PL (mg/dL)": 157.2}
{"COMPOUND": "CC(=O)[C@@]1(O)CC[C@H]2[C@@H]3C=C(Cl)C4=CC(=O)CC[C@]4(C)[C@H]3CC[C@@]21C", "PL (mg/dL)": 171}
{"COMPOUND": "CC(S)C(=O)NCC(=O)O (centres undefined)", "PL (mg/dL)": 142}

Okay, next one:
Q: Recorded PL for O=C(O)c1ccccc1Nc1ccccc1 , please?
Ans: 161.8

---

Species on record: Rattus norvegicus
Assay: Open TG-GATES - Regimen: Daily Repeat
Assay type: toxicity, organism-based, Sprague-Dawley
Design: regimen Daily Repeat, gender Male, age 6 weeks
Settings: in vivo, po, 1000 mg/kg, […], tissue Kidney, route gavage, dose level High, time 7 day
Some molecules, each annotated with its measured KIDNEY_R.
Please state the value followed by its unit.

Reference set, count: 3
{"MOLECULE": "CC(=O)[C@@]1(O)CC[C@H]2[C@@H]3C=C(Cl)C4=CC(=O)CC[C@]4(C)[C@H]3CC[C@@]21C [CHLORMADINONE]", "PROPERTY NAME": "KIDNEY_R", "OBSERVED MEASUREMENT": "1 g"}
{"MOLECULE": "CC(S)C(=O)NCC(=O)O (centres undefined) [TIOPRONIN]", "PROPERTY NAME": "KIDNEY_R", "OBSERVED MEASUREMENT": "1.2 g"}
{"MOLECULE": "CCCCNC(=O)NS(=O)(=O)c1ccc(C)cc1 [TOLBUTAMIDE]", "PROPERTY NAME": "KIDNEY_R", "OBSERVED MEASUREMENT": "1.1 g"}

Q: Recorded KIDNEY_R for O=C(O)c1ccccc1Nc1ccccc1 [FENAMIC ACID] , please?
Ans: 1.1 g

---

Organism: Rattus norvegicus
Test: Open TG-GATES - Regimen: Daily Repeat
Format: toxicity, organism-based, Sprague-Dawley
Design: regimen Daily Repeat, gender Male, age 6 weeks
Details: in vivo, po, 100 mg/kg, […], tissue Plasma, route gavage, dose level Low, time 14 day
PROPERTY NAME: A/G
Write no unit; give the number alone.

Reference set, count: 3
{"COMPOUND": "CC(=O)[C@@]1(O)CC[C@H]2[C@@H]3C=C(Cl)C4=CC(=O)CC[C@]4(C)[C@H]3CC[C@@]21C", "A/G": 1.2}
{"COMPOUND": "CCCCNC(=O)NS(=O)(=O)c1ccc(C)cc1 [TOLBUTAMIDE]", "A/G": 0.8}
{"COMPOUND": "CC(S)C(=O)NCC(=O)O (centres undefined)", "A/G": 1.2}

Okay, next one:
Q: Recorded A/G for O=C(O)c1ccccc1Nc1ccccc1 , please?
Ans: 0.9
